- TEST: Metabolic stability in rat liver microsomes assessed as half life measured upto 120 mins
- Format: ADME, Microsome
// label = t if half-life is not less than 30 min, otherwise f

IN: Could you please find out whether "[2H]C([2H])([2H])c1nnn(C)c1-c1cnc2c3c(F)cc(C(C)(C)O)cc3n([C@H](c3cc(C)on3)C3CCOCC3)c2c1" has half-life that meets 30 min or exceeds it?
OUT: t

IN: Can you check "Cc1cc([C@H](C2CCOCC2)n2c3cc(C(C)(C)O)ccc3c3ncc(-c4c(C)nnn4C)cc32)no1" next?
OUT: f

IN: Can you check "[2H]C([2H])([2H])c1nnn(C)c1-c1cnc2c3cc(F)c(C(C)(C)O)cc3n([C@H](c3ccccc3)C3CCOCC3)c2c1" next?
OUT: t

IN: Can you check "Cc1cc([C@H](C2CCOCC2)n2c3cc(C(C)(C)O)ccc3c3ncc(-c4c(C)nnn4C)cc32)n(C)n1" next?
OUT: t

IN: Can you check "[2H]C([2H])([2H])c1nnn(C)c1-c1cnc2c3ccc(C(C)(C)O)cc3n([C@H](c3ccc(Cl)cn3)C3CCOCC3)c2c1" next?
OUT: t
